# System: DU-145 prostate
# assayProcedure: NCI tumour cell line growth inhibition, 48 h
metricName: TGI

INSERT INTO results (molecule, testvalue) VALUES
  ('O=S(/C=C/C=C/S(=O)(=O)c1ccccc1)c1ccccc1 (stereo unspecified)', '> 7 µM'),
  ('CN(C)CCCNCc1ccc(-c2ccc(F)c(Cl)c2)o1', '30.6 µM'),
  ('CC(C)OC(=O)c1cc(NS(=O)(=O)c2ccc3ccccc3c2)cc(C(=O)OC(C)C)c1', '> 100 µM'),
  ('CSC(Cc1ccc2c(c1)Sc1ccccc1O2)=[N+]1CCOCC1', '> 100 µM'),
  ('Cc1cc(Cc2cc(Cc3cc(C)cc(C(C)(C)C)c3O)c(C)cc2C)c(O)c(C(C)(C)C)c1', '27.6 µM'),
  ('COc1ccc(CCCNC(=O)Cc2cc(OC)c(OC)cc2CO)cc1OC', '> 100 µM'),
  ('Cc1nc2cc(Nc3nc(N4CCCCC4)nc(N4CCOCC4)n3)ccc2n1Cc1ccccc1', '> 100 µM'),
  ('CCOC(=O)/C(C#N)=C/c1ccc(SCc2ccco2)c([N+](=O)[O-])c1', '> 100 µM'),
  ('COc1cccc2c(Nc3ccc(S(=O)(=O)N=C(N)N)cc3)c3ccc([N+](=O)[O-])cc3nc12', '> 100 µM'),
  ('CC(=N\O)/C(C)=N/O.CC(=N\O)/C(C)=N/O.CC(=N\O)/C(C)=N/O.CC(=N\O)/C(C)=N/O.[CH3-].[CH3-].[Co].[Co]', '> 100 µM'),
  ('O=C(N/N=C/c1c(Cl)cccc1Cl)c1cccnc1Nc1cccc(C(F)(F)F)c1', '> 100 µM'),
  ('CC(O)CCc1ccc(Oc2c3ccccc3nc3occc23)cc1 (stereo unspecified)', '32.2 µM'),
  ('O=C(Nc1ccc([As]=[As]c2ccc(NC(=O)c3ccccc3)cc2)cc1)c1ccccc1 (stereo unspecified)', '2.75 µM'),
  ('O=S(=O)(Nc1ccc(Cl)cc1)c1ccc(-c2cnc(C3CC3)o2)cc1', '15.3 µM'),
  ('Cc1cc(C2CC(O)C(CO)O2)c(Cl)cc1Cl (stereo unspecified)', '> 100 µM'),
  ('CC1=C(C(=O)N[C@@H](CC(C)C)C(=O)O)N2C(=O)[C@@H](NC(=O)[C@@H](N)Cc3ccccc3)[C@H]2SC1', '> 100 µM'),
  ('O=C1CC2(CCC(O)(c3ccccc3)C(C(=O)c3ccccc3)C2)C(=O)c2ccccc2N1 (stereo unspecified)', '> 100 µM'),
  ('Nc1ccc(I)cn1', '> 100 µM'),
  ('O=C1O/C(=C\c2ccc(O)c(Br)c2)C(c2ccc(O)c(Cl)c2)=C1Br', '43 µM'),
  ('CCOC(=O)/C=C\c1c(Cl)n(-c2ccccc2)c(=O)n(-c2ccccc2)c1=O', '34.9 µM'),
  ('N#Cc1c(Br)n(C2OC(CO)C(O)C2O)c2ncn3ccnc3c12 (stereo unspecified)', '> 100 µM');

====

Catalogue of TGI values
# System: TK-10 renal
# assayProcedure: NCI tumour cell line growth inhibition, 48 h
metricName: TGI

INSERT INTO assay_data (compound, testvalue) VALUES
  ('C=C1C(=O)O[C@H]2[C@H]1CC/C(COC(=O)CCSSCCC(=O)OC/C1=C/CC[C@@]3(C)O[C@H]3[C@H]3OC(=O)C(=C)[C@@H]3CC1)=C\CC[C@@]1(C)O[C@@H]21', '3.19 µM'),
  ('CC(C)CSCC1OC(n2cnc3c(N)nccc32)C(O)C1O (stereo not given)', '> 100 µM'),
  ('COC(=O)c1cc(C)ccc1/C=C1\Cc2cccc(C)c2C1=O', '> 100 µM'),
  ('S=C1N=C2C(=N1)n1c3c(c4ccccc41)CCCC23 (stereo not given)', '> 100 µM'),
  ('O=[N+]([O-])c1ccc2c(c1)C(=NO)c1cc([N+](=O)[O-])ccc1-2', '> 100 µM'),
  ('CN/N=C(\C)c1c(O)cc(C)oc1=O', '> 100 µM'),
  ('Cn1cc(-c2ccc(-c3cn(C)c4ccc(Cl)cc34)[nH]2)c2cc(Cl)ccc21', '9.8 µM'),
  ('CCOC(=O)C(NC(=O)CC)(Nc1ccccc1OC)C(F)(F)F (stereo not given)', '> 100 µM'),
  ('NC1C(O)C(O)C(CO)OC1n1cc(F)c(=O)[nH]c1=O (stereo not given)', '> 100 µM'),
  ('O=C1O/C(=C\c2ccc(O)c(Br)c2)C(c2ccc(O)c(Cl)c2)=C1Br', '48.3 µM'),
  ('c1ccc2c(c1)CCN2CCN1CCc2ccccc21', '> 10 µM'),
  ('CCOC(=O)c1ccc(NC(=O)O/N=C(/Cl)CC)cc1', '> 34.4 µM'),
  ('COc1nc(NC2OCC(OC(C)=O)C(OC(C)=O)C2OC(C)=O)c(-c2csc(N)n2)c(=O)n1C (stereo not given)', '> 100 µM'),
  ('CC(=O)OC1CCC2(C)C(CCC3C4CC=C(C5(C)OCCO5)C4(C)CCC32)C1 (stereo not given)', '> 100 µM'),
  ('CCOP(=O)(OCC)/C(C#N)=C\c1ccc(OC(C)=O)cc1', '> 100 µM'),
  ('c1ccc(C(NC2CCCCC2NCCNC2CCCCC2NC(c2ccccc2)(c2ccccc2)c2ccccc2)(c2ccccc2)c2ccccc2)cc1 (stereo not given)', '> 100 µM'),
  ('CC(=O)NC(CC(C)C)C(=O)NC(CC(C)C)C(=O)NC(C=O)CCCN=C(N)N (stereo not given)', '> 100 µM'),
  ('O=S(/C=C/C=C/S(=O)(=O)c1ccccc1)c1ccccc1 (stereo not given)', '6.08 µM'),
  ('Cc1nn(C(=O)c2ccccc2O)c2c1C(c1ccco1)SC(N)=N2 (stereo not given)', '> 10 µM'),
  ('CC(=O)NNc1nc(C)c(C(=O)/C=C/c2cccc([N+](=O)[O-])c2)s1', '> 100 µM'),
  ('CC(=O)c1c2c(cc3c1CC1(C3)Cc3cc4c(c(C(=O)O)c3C1)CCCC4)CCCC2 (stereo not given) (tested in a mixture with another compound)', '> 100 µM'),
  ('CC1(C)C2CCC13C(=O)C1OC3(C2)C2C(=O)N(c3ccccc3)C(=O)C12 (stereo not given)', '> 100 µM'),
  ('C=C1C(=O)OC2/C=C(/CO)C3(O)CC(O)C(C)(CC(OC(=O)/C(C)=C/C)C12)O3 (stereo not given)', '32.1 µM'),
  ('COC(=O)C#Cc1cccc(OC)c1OC', '> 100 µM'),
  ('CSC(Cc1ccc2c(c1)Sc1ccccc1O2)=[N+]1CCOCC1', '> 100 µM'),
  ('COc1ccc2nc3cccc([N+](=O)[O-])c3c(NCCNCCO)c2c1', '0.272 µM'),
  ('O=C(Nc1ccc2ncccc2c1)c1cc2c(cc1Cl)Sc1nccn1S2(=O)=O', '69.4 µM'),
  ('O=C(CCc1ccc(O)c(O)c1)NCCc1cc(O)cc(OCc2ccccc2)c1', '> 100 µM'),
  ('COc1ccc(Nc2nc3c(N)cc(C(F)(F)F)cc3nc2-c2ccccc2)cc1OC', '47.3 µM'),
  ('O=C(O)c1ccccc1Sc1ccccc1[N+](=O)[O-]', '> 100 µM'),
  ('O=C1c2cccc(O)c2C(=O)c2cccc(O)c21', '> 100 µM'),
  ('COc1ccc(Nc2nc3cc(C(F)(F)F)ccc3nc2C(=O)O)cc1', '> 100 µM'),
  ('COc1nc(Cl)nc(Cl)c1Cl (tested in a mixture with another compound)', '19 µM'),
  ('COC(=O)C(Cc1ccc2c(c1)CCCC2)Cc1cc2c(cc1C(O)OC)CCC2 (stereo not given)', '> 100 µM'),
  ('CCOC(=O)c1nnn(-c2no[n+]([O-])c2-c2ccc(OC)cc2)c1COc1cccc2cccnc12', '7.35 µM'),
  ('CCCN(CCC)c1ccc(CO)c(Cl)c1', '0.663 µM'),
  ('CCOC(=O)/C=C1/SC(N2CCCCC2)C(=O)N1CC (stereo not given)', '> 100 µM'),
  ('C=C1C(=O)O[C@H]2[C@H]1CC/C(COC(=O)/C=C\C(=O)NCc1ccc(Cn3c(=O)sn(CCCI)c3=O)cc1)=C\CC[C@@]1(C)O[C@@H]21', '1.52 µM'),
  ('C[Si](C)(c1ccccc1)C1CC(=O)CC(=O)C1', '> 100 µM'),
  ('CC(=O)OC1CC2C(C)(C)C(=O)C=C[C@]2(C)C2CC[C@]3(C)C(OCC(=O)[C@H]3c3ccoc3)[C@]12C (stereo not given in full)', '35.7 µM');
